- System: LOX IMVI
- TEST: NCI tumour cell line growth inhibition, 48 h
The source made the active and inactive calls. Cut-off read from the data, not from the text of the source: active = GI50 up to about 1.1 µM and inactive = higher.
Result category, one only: active, inactive

- MOLECULE: "O=C1CC2C=CC(O)C(C1)C2 (stereo not given)"
  ASSAYED TARGET: "LOX IMVI"
  CATEGORY LABEL: "inactive"
- MOLECULE: "C=C1c2nc3ccccc3n2C=C(c2ccc(C)cc2)N1c1ccccc1"
  ASSAYED TARGET: "LOX IMVI"
  CATEGORY LABEL: "inactive"
- MOLECULE: "C(#C[C@@]12CCC[C@@H]1NCO2)c1ccc2c(c1)OCO2"
  ASSAYED TARGET: "LOX IMVI"
  CATEGORY LABEL: "inactive"
- MOLECULE: "CN(CCNC(=O)c1cn(C)c2c1ccc1cc(Cl)ccc12)CCNC(=O)c1cn(C)c2c1ccc1cc(Cl)ccc12"
  ASSAYED TARGET: "LOX IMVI"
  CATEGORY LABEL: "inactive"
- MOLECULE: "CCN(CC)CCNc1ccc2nnn3c4ccc(C)cc4c(=O)c1c23"
  ASSAYED TARGET: "LOX IMVI"
  CATEGORY LABEL: "inactive"

Kindly provide the recorded test outcome for the following molecule: COc1ccc2c(c1)CCC(OS(=O)(=O)CC13CCC(CC1=O)C3(C)C)C2=O (stereo not given)
inactive

What classification did "COc1ccccc1/C=C(\NC(=O)c1ccccc1)c1nc2ccc(Cl)cc2[nH]1" end up with in this test?
inactive

Per the assay record, what outcome was assigned to CCN(CC)C(=S)SC(C(=O)Nc1nnc(-c2ccccc2)o1)c1ccccc1 (stereo not given) ?
inactive

For "COc1cc(/C=N\NC(=O)C[N+](C)(C)C)cc(OC)c1OC" , which call appears in the assay record?
inactive

How was COC(=O)c1c(CC(Cc2ccc3c(c2)CCCC3)C(=O)O)ccc2c1CCCC2 (stereo not given) classified in this test?
inactive

These entries and their values trace back to ChEMBL document CHEMBL1201862.
